Target: coagulation factor Xa (FXa) (UniProt P00742;P00742 P00742:41-179,P00742:235-488)
Sequence (P00742 41-179, chain 1 of 2): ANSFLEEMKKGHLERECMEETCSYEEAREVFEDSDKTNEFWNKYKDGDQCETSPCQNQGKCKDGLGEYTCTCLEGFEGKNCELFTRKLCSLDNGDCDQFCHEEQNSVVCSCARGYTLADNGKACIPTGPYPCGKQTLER
Sequence (P00742 235-488, chain 2 of 2): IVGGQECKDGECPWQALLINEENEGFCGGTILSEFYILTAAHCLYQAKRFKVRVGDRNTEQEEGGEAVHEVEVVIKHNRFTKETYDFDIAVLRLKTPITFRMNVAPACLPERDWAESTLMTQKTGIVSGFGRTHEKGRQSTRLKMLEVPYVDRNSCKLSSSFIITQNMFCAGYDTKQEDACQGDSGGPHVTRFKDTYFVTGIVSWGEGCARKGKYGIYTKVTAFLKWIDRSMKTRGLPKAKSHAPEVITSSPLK
Measured pKd of individual entries
Just the number, please; pKd means minus log10 of the concentration in mol/L.

Please report pKd for the following binder: D7-2 (ssRNA) RNA: GGGAGAGAGGAAGAGGGAUGGGAGAAUAGCCCCAGCGAGAUAAUACUUGGCCCCGCUAAUACCAUAACCCAGAGGUCGAU 8.09

Read the entry D6-4 (ssRNA) RNA: GGGAGAGAGGAAGAGGGAUGGGAAAUUUGCCCUAGCGAGAUUAUACUUGGCCCCGCGAAAAACCAUAACCCAGAGGUCGAU and write its reported pKd. 8.07

Let us examine a further case.
Indicate its recorded pKd; the binder in question is D6-9 (ssRNA) RNA: GGGAGAGAGGAAGAGGGAUGGGAAAUUUGCCCCAGCGAGAUAAUACUUGGCCCCGCAACUACCAUAACCCAGAGGUCGAU 8.19
